Values were extracted from the PolyMetriX glass transition set.

Recorded glass transition temperature values for a group of molecules are listed next.

| molecule | glass transition temperature / °C |
| --- | --- |
| *Oc1c([2H])c([2H])c(S(=O)(=O)c2c([2H])c([2H])c(Oc3c([2H])c([2H])c(C(c4c([2H])c([2H])c(*)c([2H])c4[2H])(C([2H])([2H])[2H])C([2H])([2H])[2H])c([2H])c3[2H])c([2H])c2[2H])c([2H])c1[2H] (repeat unit) | 175.00 |
| *c1ccc2c(c1)C(=O)N(c1cccc(C(F)(F)C(F)(F)C(F)(F)C(F)(F)C(F)(F)c3cccc(N4C(=O)c5ccc(C(F)(F)C(F)(F)C(F)(F)C(F)(F)C(F)(F)C(F)(F)C(*)(F)F)cc5C4=O)c3)c1)C2=O (repeat unit) | 108.50 |
| *CC(=O)Nc1ccc(Oc2c(F)c(F)c(Oc3ccc(NC(=O)c4ccc5c(c4)C(=O)N(*)C5=O)cc3)c(F)c2F)cc1 (repeat unit) | 254.00 |
| *c1ccc(-c2cnc3cc(S(=O)(=O)c4ccc5nc(*)cnc5c4)ccc3n2)cc1 (repeat unit) | 342.00 |
| *CCOCCOCCN1C(=O)c2ccc(C(=O)Oc3ccc4cc(OC(=O)c5ccc6c(c5)C(=O)N(*)C6=O)ccc4c3)cc2C1=O (repeat unit) | 105.00 |
| *c1ccc(Cc2ccc(N3C(=O)c4ccc(Oc5ccc(C(C)(C)c6ccc(Oc7ccc8c(c7)C(=O)N(*)C8=O)cc6)cc5)cc4C3=O)cc2)cc1 (repeat unit) | 217.00 |

* * *

Rule: glass transition temperature below 200 °C gives Yes. Equal to or above 200 °C gives No.

| molecule | qualitativeLabel |
| --- | --- |
| *Oc1ccc(CCNC(=O)c2cccc(C(=O)NCCc3ccc(OC(=O)c4cccc(C(*)=O)c4)cc3)c2)cc1 (repeat unit) | Yes |
| *OC(F)(C(=O)[N]([Li])S(=O)(=O)C(F)(F)C(*)(F)F)C(F)(F)F (repeat unit) | Yes |
| *Cc1ccc(CNC(=O)CCCCCCCCCCCC(=O)N*)cc1 (repeat unit) | Yes |
| *C(=O)Oc1ccc(OC(=O)c2ccc3c(c2)C(=O)N(c2ccc(Cc4ccc(N5C(=O)c6ccc(*)cc6C5=O)cc4)cc2)C3=O)c(C(C)(C)C)c1 (repeat unit) | Yes |
| *Nc1ccc(-c2ccc(NC(=O)c3ccc(C(*)=O)cc3)cc2)cc1 (repeat unit) | No |
| *CC(*)(C#N)C(=O)OCCCCCCC (repeat unit) | Yes |
| *CCCCCCCCCCCC(=O)N(*)C (repeat unit) | Yes |
| *Oc1ccc(CC(NC(=O)CCc2ccc(OC(=O)COCCOCC(*)=O)cc2)C(=O)OCCCCCCCC)cc1 (repeat unit) | Yes |
| *Oc1ccc(NC(=O)c2ccc(P(=O)(c3ccccc3)c3ccc(C(=O)Nc4ccc(Oc5ccc(P(=O)(c6ccccc6)c6ccc(*)cc6)cc5)cc4)cc3)cc2)cc1 (repeat unit) | No |
| *C(=O)c1ccc2c(c1)C(=O)N(c1ccc(Oc3ccc(C(C)(C)c4ccc(Oc5ccc(N6C(=O)c7ccc(*)cc7C6=O)cc5)cc4)cc3)cc1)C2=O (repeat unit) | No |
| *CC(*)C(=O)c1ccc(C)c(C)c1 (repeat unit) | Yes |
| *Oc1ccc(P(=O)(c2ccccc2)c2ccc(Oc3ccc(-c4ccc(*)cc4)cc3)cc2)cc1 (repeat unit) | No |
| *C(=O)c1ccc2c(c1)C(=O)N(c1ccc(C(=O)Nc3ccc(N4C(=O)c5ccc(*)cc5C4=O)cc3)cc1)C2=O (repeat unit) | No |
| *CCCCCCOC(=O)OCCCCCCCCCCOC(=O)OCCCCCCOc1ccc(Oc2ccc(O*)cc2)cc1 (repeat unit) | Yes |
| *CC(COC(C)C)O* (repeat unit) | Yes |
| *CC(COc1ccc(C(C)(C)c2ccc(O*)cc2)cc1)OC(=O)/C=C/c1ccccc1 (repeat unit) | Yes |
| *C(=O)Nc1ccc(-c2cc(-c3ccccc3)cc(-c3ccc(NC(=O)c4ccc5c(c4)C(=O)N(c4cccc(P(=O)(c6ccccc6)c6cccc(N7C(=O)c8ccc(*)cc8C7=O)c6)c4)C5=O)cc3)n2)cc1 (repeat unit) | No |
| *c1ccc(C(C)(C)c2ccc(N3C(=O)c4ccc(Oc5ccc6c(c5)C(=O)N(*)C6=O)cc4C3=O)cc2)cc1 (repeat unit) | No |
| */C=C/C1CC(*)C(C#N)([Si](C)(C)C)C1 (repeat unit) | No |
| *Nc1ccc(C(C)(C)c2ccc(NC(=O)c3cc(C(*)=O)cc(N4C(=O)C5C6CCC(C6)C5C4=O)c3)cc2)cc1 (repeat unit) | No |
| *O[Si](*)(C)CCCC(=O)O (repeat unit) | Yes |
| *[Si](*)(CCCC)CCCCC (repeat unit) | Yes |
| *CC(C)(N=C=O)C1C(=O)OC(=O)C1* (repeat unit) | Yes |
| *Nc1ccc(C(C)(C)c2cccc(C(C)(C)c3ccc(NC(=C(C#N)C#N)c4ccc(C(*)=C(C#N)C#N)cc4)cc3)c2)cc1 (repeat unit) | No |
| *c1ccc(Oc2ccc(-c3ccc(Oc4ccc(N5C(=O)c6ccc(Oc7ccc(Oc8ccc(Oc9ccc%10c(c9)C(=O)N(*)C%10=O)cc8)cc7)cc6C5=O)cc4)cc3)cc2)cc1 (repeat unit) | No |
| *Nc1ccc(Cc2ccc(NC(=O)c3cc(NC(=O)CCCN4C(=O)c5ccccc5C4=O)cc(C(*)=O)c3)cc2)cc1 (repeat unit) | No |
| *CCCOCCCOC(=O)c1ccc(-c2ccc(C(=O)O*)cc2)cc1 (repeat unit) | Yes |
| */C=C/c1ccc(*)c(-c2c(OCC(CC)CCCC)ccc3cc(-c4ccccc4)ccc23)c1 (repeat unit) | Yes |
| *C1Oc2ccccc2C1* (repeat unit) | Yes |
| *Oc1ccc(CC(NC(=O)CCc2ccc(OC(=O)CCC(*)=O)cc2)C(=O)OCc2ccccc2)cc1 (repeat unit) | Yes |
